Target: Human Dopamine D3 Receptor membrane (Homo sapiens, UniProt P35462)
Sequence (P35462 whole entry): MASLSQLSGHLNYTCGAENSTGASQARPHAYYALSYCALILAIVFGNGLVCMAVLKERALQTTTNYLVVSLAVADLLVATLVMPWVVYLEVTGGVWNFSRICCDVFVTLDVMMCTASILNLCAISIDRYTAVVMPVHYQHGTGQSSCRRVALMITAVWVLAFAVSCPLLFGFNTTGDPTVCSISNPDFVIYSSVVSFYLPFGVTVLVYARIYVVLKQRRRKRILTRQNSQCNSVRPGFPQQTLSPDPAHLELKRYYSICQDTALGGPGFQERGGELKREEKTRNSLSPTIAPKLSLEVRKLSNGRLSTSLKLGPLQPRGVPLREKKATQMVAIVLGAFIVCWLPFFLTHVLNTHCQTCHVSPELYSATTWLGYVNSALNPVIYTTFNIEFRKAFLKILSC
pIC50: recorded values
Units for pIC50: none; it is -log10 of a concentration expressed in mol/L.

Cc1ncc(C(=O)N[C@H]2C[C@H](CCN3CCN(c4cccc(Cl)c4Cl)CC3)C2)o1 [Example 24A]; 9.48
Cc1cc(C(=O)N[C@H]2C[C@H](CCN3CCN(c4cccc(Cl)c4Cl)CC3)C2)on1 [Example 22A]; 9.47

The record that follows has no pIC50 shown yet.
The molecule CC(C)(O)C(=O)N[C@H]1C[C@H](CCN2CCN(c3cccc(Cl)c3Cl)CC2)C1 [Example 11A] on Human Dopamine D3 Receptor membrane (Homo sapiens, UniProt P35462): pIC50 was 9.02

----------
Assay: Stability in human liver microsome in vitro
Assay type: in vitro ADME
Conditions: 120 min
measured quantity: Remaining (%, 120 min) (%)
Note: unit % is implicit; provide only the numeric part.

# Remaining (%, 120 min) of O=C(NC1CC(CCN2CCN(c3cccc(Cl)c3Cl)CC2)C1)C1(O)CC1 (stereo not shown) = 63.0

Field Remaining (%, 120 min) (entry O=C(N[C@H]1C[C@H](CCN2CCN(c3cccc(Cl)c3Cl)CC2)C1)C1(O)CC1 [Example 13A] ) reads 53.3

----------
Test: Stability in human liver microsome in vitro
Format: in vitro ADME
Conditions: 120 min
I would appreciate it if you labelled entries satisfied when Remaining (%, 120 min) is 40% or higher, otherwise not satisfied.

Consider the following illustrative entries.
CC(C)(O)CC(=O)NC1CC(CCN2CCN(c3cccc(Cl)c3Cl)CC2)C1 (centres unmarked); satisfied
O=C(N[C@H]1C[C@H](CCN2CCN(c3cccc(Cl)c3Cl)CC2)C1)c1ccon1 [Example 25A]; not satisfied
CN(C)C(=O)NC1CC(CCN2CCN(c3cccc4sccc34)CC2)C1 (centres unmarked); satisfied
CN(C)C(=O)N[C@H]1CC[C@H](CCN2CCN(c3cccc(Cl)c3Cl)CC2)CC1 [Cariprazine, reference compound]; not satisfied

Now consider a different compound.
Given O=C(N[C@H]1C[C@H](CCN2CCN(c3cccc(Cl)c3Cl)CC2)C1)c1ncco1 [Example 20A] , state whether its Remaining (%, 120 min) is at least 40%. satisfied
